studyTarget: LIMK1KD (Homo sapiens, UniProt P53667)
Construct: His6 (N, cleaved yes); made in house; host or cells: baculovirus; Sf9 for virus, TriEx insect cells for expression
Sequence (P53667 330-637): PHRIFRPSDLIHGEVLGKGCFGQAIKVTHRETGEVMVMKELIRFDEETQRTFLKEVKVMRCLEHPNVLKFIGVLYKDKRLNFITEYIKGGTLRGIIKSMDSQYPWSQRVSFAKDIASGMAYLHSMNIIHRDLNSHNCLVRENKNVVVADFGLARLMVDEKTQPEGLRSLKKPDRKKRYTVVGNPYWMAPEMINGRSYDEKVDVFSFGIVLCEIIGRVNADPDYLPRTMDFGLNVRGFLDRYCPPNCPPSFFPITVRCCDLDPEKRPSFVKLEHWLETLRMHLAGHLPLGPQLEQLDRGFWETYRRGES
method: Differential (dynamic) scanning fluorimetry (DSF) assay, LIMK1KD
Type: binding
condition: 2 µM LIMK1KD, compound 10 µM, single shot; read-out: TM Shift LIMK1 (K)
Where a name gives a salt, the structure may show the parent alone.
readout: ΔTm at 10 µM (°C)

Some molecules with known ΔTm at 10 µM results, for comparison:
[
  {
    "molecule": "FC(F)c1nc2ccccc2n1-c1nc(N2CCOCC2)nc(N2CCOCC2)n1",
    "resultUnits": "°C",
    "ΔTm at 10 µM": -1
  },
  {
    "molecule": "CS(=O)(=O)c1ccc(-c2cnc(N)c(C(=O)Nc3ccccc3)n2)cc1",
    "resultUnits": "°C",
    "ΔTm at 10 µM": 0.8
  }
]

A: C[C@@H]1CCN(C(=O)CC#N)C[C@@H]1N(C)c1ncnc2[nH]ccc12 [Tofacitinib (CP-690550) Citrate, Tofacitinib]
B: O=C(NC[C@H](O)CO)c1ccncc1Nc1ccc(I)cc1F
Enquiry: Given the two records A and B , choose the one whose ΔTm at 10 µM value is lower. Kindly give the label for the entry you pick.
Return: A
